- target: recombinant HCV E2 protein (Con1eE2, eE2) (Hepatitis C virus (isolate Con1))
- Construct: E2 ectodomain residues 384-656 cut from the HCV genome polyprotein; C-terminal Protein A tag removed by PreScission protease; secreted from HEK293T cells (lentiviral)
- Sequence (Q9WMX2 384-656): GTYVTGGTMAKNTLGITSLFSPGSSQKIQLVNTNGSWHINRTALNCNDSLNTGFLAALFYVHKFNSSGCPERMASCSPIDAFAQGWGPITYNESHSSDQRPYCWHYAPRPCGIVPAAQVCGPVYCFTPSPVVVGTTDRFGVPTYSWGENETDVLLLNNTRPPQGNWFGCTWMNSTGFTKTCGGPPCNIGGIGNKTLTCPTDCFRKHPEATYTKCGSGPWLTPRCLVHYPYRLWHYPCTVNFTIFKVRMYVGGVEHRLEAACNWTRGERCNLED
- protocol.summary: SPR single concentration screen (Biacore T100, CM5 chip)
- Assay type: binding
- experimental.parameters: 200 µM ligand in PBS; E2 immobilised by amine coupling (about 10,000 RU)
This section presents molecules with their documented Binding (RU) values.
measurement.label: Binding (RU)

>>> print(df.to_string())
                                   molecule  measurement_label  observed_value
0  Cc1nc(/N=C(/N)N(C)C)[nH]c(=O)c1C [compound 113486, NSC# 113486]       Binding (RU)           104.7
1  COc1ccc(C2=CC(c3ccc(OC)c(OC)c3)c3c(c4ccccc4oc3=O)O2)cc1OC (stereo not shown) [compound 211490, NSC# 211490]       Binding (RU)           102.9
2  Nc1nc(N)nc(-c2ccccc2-c2nc(N)nc(N)n2)n1 [compound 4429, NSC# 4429]       Binding (RU)           155.3
3  CC1(C)N=C(N)N=C(N)N1c1ccc(OCCCOc2ccccc2)c(Cl)c1.CCS(=O)(=O)O [compound 133071, NSC# 133071]       Binding (RU)           276.3
